Measured μ (binding on the μ opioid receptor, % inhibition), listed per entry for reference.
Target: human μ opiate receptor (Homo sapiens, UniProt P35372)
Construct: purchased PerkinElmer Life Sciences, Zaventem, Belgium RB-HOM; host or cells: CHO-K1 cells (membrane preparation)
Sequence (P35372 whole entry): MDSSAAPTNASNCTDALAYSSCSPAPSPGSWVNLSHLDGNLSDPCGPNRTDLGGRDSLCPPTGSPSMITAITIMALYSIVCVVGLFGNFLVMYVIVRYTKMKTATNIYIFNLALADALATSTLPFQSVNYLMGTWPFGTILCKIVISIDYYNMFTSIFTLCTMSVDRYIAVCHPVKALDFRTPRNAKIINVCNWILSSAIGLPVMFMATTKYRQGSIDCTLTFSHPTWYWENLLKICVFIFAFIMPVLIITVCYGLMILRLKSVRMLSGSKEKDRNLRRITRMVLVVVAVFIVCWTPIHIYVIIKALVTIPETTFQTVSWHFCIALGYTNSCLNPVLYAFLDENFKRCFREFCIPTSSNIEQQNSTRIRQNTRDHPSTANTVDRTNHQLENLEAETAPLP
Test: Affinity for the human μ opiate receptor ([3H]-naloxone displacement, CHO-K1 receptor membrane preparation, SPA)
Type: binding
Conditions: test concentration of 1 μM
Method: Binding data of the compounds on the μ opioid receptor and data on the inhibition of reuptake of serotonin (5-HT) are given in Table 1. The data for the μ receptor were measured at a test concentration of 1 μM, and those for the serotonin reuptake at 10 μM. The values are stated in % inhibition. […] The receptor affinity for the human p opiate receptor is determined in a homogeneous set-up in microtitre plates. […]
Response body: numeric value in %, unit text excluded.

CCN(CCOCC(=O)NC1CCC(C(c2ccc(F)cc2)N(C)C)CC1)S(=O)(=O)c1c(C)cc(OC)c(C)c1C (stereo not shown)	60
COc1cc(C)c(S(=O)(=O)N(CCOCC(=O)NC2CCC(C(c3cccc(F)c3)N(C)C)CC2)Cc2ccccc2)c(C)c1C (stereo not shown)	53
Cc1ccc(S(=O)(=O)N(C)CCOCC(=O)NCCC2CCC(C(c3ccc(F)cc3)N(C)C)CC2)cc1 (stereo not shown)	47
CN(C)C(c1ccc(F)cc1)C1CCC(CCNC(=O)COC2CCN(S(=O)(=O)c3ccc(Cl)cc3)C2)CC1 (stereo not shown)	46
CN(C)C(c1ccc(F)cc1)C1CCC(CNC(=O)COCCN(C)S(=O)(=O)c2c(Cl)cc(Cl)cc2Cl)CC1 (stereo not shown)	53

Please report the recorded μ (binding on the μ opioid receptor, % inhibition) for COc1cc(C)c(S(=O)(=O)N2CCC(OCC(=O)NCC3CCC(C(c4ccc(F)cc4)N(C)C)CC3)CC2)c(C)c1C (stereo not shown) .
38

Query COc1cc(C)c(S(=O)(=O)N2CCC(OCC(=O)NC3CCC(C(c4cccc(F)c4)N(C)C)CC3)CC2)c(C)c1C (stereo not shown) next
76

====

Measured μ (binding on the μ opioid receptor, % inhibition), listed per entry.
molecular target: human μ opiate receptor (Homo sapiens, UniProt P35372); construct: purchased PerkinElmer Life Sciences, Zaventem, Belgium RB-HOM; host or cells: CHO-K1 cells (membrane preparation); test: Affinity for the human μ opiate receptor ([3H]-naloxone displacement, CHO-K1 receptor membrane preparation, SPA); assay type: binding; conditions: test concentration of 1 μM

CN(C)C(c1ccc(F)cc1)C1CCC(NC(=O)COCCN(C)S(=O)(=O)c2ccc(F)cc2)CC1 (stereo not shown) [Example 357]	57%
COc1cc(C)c(S(=O)(=O)N(C)CCOCC(=O)NCCC2CCC(C(c3ccc(Cl)cc3)N(C)C)CC2)c(C)c1 (stereo not shown) [Example 378]	58%
CN(C)C(c1ccc(F)cc1)C1CCC(CCNC(=O)COC2CCN(S(=O)(=O)c3ccc(F)cc3)C2)CC1 (stereo not shown) [Example 518]	35%

Param readout= μ (binding on the μ opioid receptor, % inhibition); system= human μ opiate receptor (Homo sapiens, UniProt P35372); entry= CN(C)C(c1ccc(F)cc1)C1CCC(NC(=O)COC2CCN(S(=O)(=O)c3ccc(F)cc3)C2)CC1 (stereo not shown) [Example 381] ; returns value.
54%

Further, for CN(C)C(c1ccc(F)cc1)C1CCC(NC(=O)COC2CCN(S(=O)(=O)c3ccccc3)C2)CC1 (stereo not shown) [Example 463] ?
38%

Please do the same for CC(=O)OC(C(=O)NCC1CCC(C(c2ccc(Cl)cc2)N(C)C)CC1)c1ccccc1 (stereo not shown) [Example 360] as well.
66%

// repeat for CN(C)C(c1ccc(F)cc1)C1CCC(NC(=O)COC2CCN(S(=O)(=O)c3ccc(Cl)cc3Cl)C2)CC1 (stereo not shown) [Example 290] and report
67%

====

Biological target: serotonin (5-HT) reuptake (Rattus norvegicus)
Construct: synaptosomes are freshly isolated from areas of the rat brain; from tissue; host or cells: rat brain synaptosomes (P2 fraction)
Sequence (P31652 whole entry): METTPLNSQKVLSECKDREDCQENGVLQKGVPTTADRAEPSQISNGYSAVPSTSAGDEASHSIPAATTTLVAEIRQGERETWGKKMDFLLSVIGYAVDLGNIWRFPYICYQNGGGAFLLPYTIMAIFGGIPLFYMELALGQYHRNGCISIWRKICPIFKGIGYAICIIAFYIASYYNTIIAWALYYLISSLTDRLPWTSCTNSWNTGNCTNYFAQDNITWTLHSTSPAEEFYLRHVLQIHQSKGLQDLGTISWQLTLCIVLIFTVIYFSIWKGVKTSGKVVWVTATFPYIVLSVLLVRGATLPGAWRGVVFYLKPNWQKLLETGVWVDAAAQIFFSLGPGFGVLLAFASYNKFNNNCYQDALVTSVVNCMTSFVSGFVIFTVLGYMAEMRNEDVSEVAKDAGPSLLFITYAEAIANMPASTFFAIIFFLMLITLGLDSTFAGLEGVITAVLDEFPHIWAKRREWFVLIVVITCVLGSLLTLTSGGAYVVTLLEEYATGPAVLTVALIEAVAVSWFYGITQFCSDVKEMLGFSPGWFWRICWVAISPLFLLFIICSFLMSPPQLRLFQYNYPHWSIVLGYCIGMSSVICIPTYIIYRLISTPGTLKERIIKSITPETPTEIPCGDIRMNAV
Assay: Inhibition of serotonin (5HT) reuptake in synaptosomes from rat brain
Format: biochemical
Conditions: test concentration of 10 μM
Method: Binding data of the compounds on the μ opioid receptor and data on the inhibition of reuptake of serotonin (5-HT) are given in Table 1. The data for the μ receptor were measured at a test concentration of 1 μM, and those for the serotonin reuptake at 10 μM. The values are stated in % inhibition. Inhibition of Serotonin (5HT) Reuptake In order to be able to carry out these in vitro studies, synaptosomes are freshly isolated from areas of the rat brain. […]
Use fulfilled when the recorded 5-HT (inhibition of reuptake of serotonin, % inhibition) is no lower than 90%; use not fulfilled when it is lower.

Illustrative cases are given below, each with its answer.
CN(C)C(c1cccs1)C1CCC(CCNC(=O)COCCN(C)S(=O)(=O)c2c(F)c(F)c(F)c(F)c2F)CC1 (stereo not shown)	not fulfilled
COc1cc(C)c(S(=O)(=O)N2CCC(OCC(=O)NCC3CCC(C(c4ccc(F)cc4)N(C)C)CC3)CC2)c(C)c1C (stereo not shown)	fulfilled
COc1cc(C)c(S(=O)(=O)N2CCC(OCC(=O)NCC3CCC(C(c4ccc(F)cc4)N(C)C)CC3)C2)c(C)c1 (stereo not shown)	fulfilled
COc1cc(C)c(S(=O)(=O)N2CCC(OCC(=O)NCCC3CCC(C(c4cccc(F)c4)N(C)C)CC3)CC2)c(C)c1C (stereo not shown)	fulfilled
CN(C)C(c1ccc(F)cc1)C1CCC(CNC(=O)COC2CCN(S(=O)(=O)c3ccc(F)cc3)C2)CC1 (stereo not shown)	fulfilled
COc1cc(C)c(S(=O)(=O)N(CCOCC(=O)NCCC2CCC(C(c3cccs3)N(C)C)CC2)Cc2ccccc2)c(C)c1C (stereo not shown)	fulfilled
Cc1cc(C)c(S(=O)(=O)N2CCC(OCC(=O)NCCC3CCC(C(c4cccc(F)c4)N(C)C)CC3)C2)c(C)c1 (stereo not shown)	not fulfilled
CN(C)C(c1ccc(F)cc1)C1CCC(NC(=O)COCCN(C)S(=O)(=O)c2ccc(Cl)cc2)CC1 (stereo not shown)	fulfilled
CN(C)C(CCc1ccccc1)C1CCC(CNC(=O)COCCN(C)S(=O)(=O)c2ccc(Cl)cc2)CC1 (stereo not shown)	not fulfilled
CN(C)C(CCc1ccccc1)C1CCC(CNC(=O)COCCN(C)S(=O)(=O)c2ccc(F)cc2)CC1 (stereo not shown)	fulfilled

Could you tell me if the measured 5-HT (inhibition of reuptake of serotonin, % inhibition) of CN(C)C(c1ccc(F)cc1)C1CCC(CNC(=O)COCCN(C)S(=O)(=O)c2ccc(OC(F)(F)F)cc2)CC1 (stereo not shown) reaches 90% or more?
fulfilled

// same read-out, input: COc1cc(C)c(S(=O)(=O)N2CCC(OCC(=O)NCC3CCC(C(c4cccc(F)c4)N(C)C)CC3)CC2)c(C)c1C (stereo not shown)
fulfilled

Same question, CN(C)C(c1ccc(F)cc1)C1CCC(CNC(=O)COCCN(C)S(=O)(=O)c2c(Cl)cccc2Cl)CC1 (stereo not shown) this time
not fulfilled

// repeat for CN(C)C(c1ccc(F)cc1)C1CCC(CNC(=O)COC2CCN(S(=O)(=O)c3ccccc3)CC2)CC1 (stereo not shown) and report
fulfilled

For CCN(CCOCC(=O)NCC1CCC(C(c2ccc(Cl)cc2)N(C)C)CC1)S(=O)(=O)c1c(C)cc(OC)c(C)c1C (stereo not shown) then?
not fulfilled

====

μ (binding on the μ opioid receptor, % inhibition) by entry:
target: human μ opiate receptor (Homo sapiens, UniProt P35372); construct: purchased PerkinElmer Life Sciences, Zaventem, Belgium RB-HOM; host or cells: CHO-K1 cells (membrane preparation); test: Affinity for the human μ opiate receptor ([3H]-naloxone displacement, CHO-K1 receptor membrane preparation, SPA); assay type: binding; details: test concentration of 1 μM
Quick note: give the figure in %, leave out the unit.

Use the examples below as a reference point.
COc1ccc(S(=O)(=O)N2CCC(OCC(=O)NCC3CCC(C(CCc4ccccc4)N(C)C)CC3)C2)cc1OC (centres unmarked)	19
COc1cc(C)c(S(=O)(=O)N(CCOCC(=O)NC2CCC(C(c3cccc(F)c3)N(C)C)CC2)Cc2ccccc2)c(C)c1 (centres unmarked)	59
COc1cc(C)c(S(=O)(=O)N2CCC(CCOCC(=O)NCC3CCC(C(c4ccc(Cl)cc4)N(C)C)CC3)CC2)c(C)c1C (centres unmarked)	37
COc1ccc(S(=O)(=O)N2CCCCC2CCOCC(=O)NCC2CCC(C(CCc3ccccc3)N(C)C)CC2)cc1 (centres unmarked)	34
CN(C)C(c1ccc(Cl)cc1)C1CCC(CNC(=O)COC2CCCN(S(=O)(=O)c3ccccc3)C2)CC1 (centres unmarked)	69
COc1cc(C)c(S(=O)(=O)N2CCN(CCOCC(=O)NCC3CCC(C(c4cccc(F)c4)N(C)C)CC3)CC2)c(C)c1C (centres unmarked)	77
Cc1ccc(S(=O)(=O)N2CCC(OCC(=O)NCC3CCC(C(c4ccc(F)cc4)N(C)C)CC3)C2)cc1 (centres unmarked)	44
CN(C)C(c1ccc(F)cc1)C1CCC(NC(=O)COCCN(C)S(=O)(=O)c2ccc(OC(F)(F)F)cc2)CC1 (centres unmarked)	59
CC(Oc1ccccc1)C(=O)NCC1CCC(C(c2ccc(Cl)cc2)N(C)C)CC1 (single isomer, unassigned) [Example 237]	81
CN(C)C(c1ccc(Cl)cc1)C1CCC(CCNC(=O)COC2CCN(S(=O)(=O)c3ccccc3)CC2)CC1 (centres unmarked)	45

Report μ (binding on the μ opioid receptor, % inhibition) for COc1ccc(S(=O)(=O)N2CCCCC2CCOCC(=O)NC2CCC(C(c3ccc(F)cc3)N(C)C)CC2)cc1 (centres unmarked) tested on human μ opiate receptor (Homo sapiens, UniProt P35372).
80

And the next one, CN(C)C(c1cccc(F)c1)C1CCC(CNC(=O)COCCN(C)S(=O)(=O)c2cccc(C(F)(F)F)c2)CC1 (centres unmarked) ?
75

Consider next the molecule COc1cc(C)c(S(=O)(=O)N(C)CCOCC(=O)NC2CCC(C(c3ccc(F)cc3)N(C)C)CC2)c(C)c1C (centres unmarked) in the same way.
55

Check COc1cc(C)c(S(=O)(=O)N2CCC(CCOCC(=O)NCCC3CCC(C(c4cccc(F)c4)N(C)C)CC3)CC2)c(C)c1C (centres unmarked) too.
67

The values you see were collected from patent US8106055B2.
